Would you kindly list viability, T/C for each of these compounds?
Tested on: KRAS-mutant PDC complex spheroid viability
Experiment: Anticancer human tumor 186277-243-T-J2-PDC patient-derived colon adenocarcinoma cell line growth inhibition [KRAS2]
Details: second compound 0.316 µM; first compound 0.0316 µM; stronger effect = lower value
Number in %, nothing else.

// returns reported viability, T/C for input Cn1ncnc1[C@H]1c2n[nH]c(=O)c3cc(F)cc(c23)N[C@@H]1c1ccc(F)cc1 + COc1cc2nc(C)nc(NC(C)c3cc(N)cc(C(F)(F)F)c3)c2cc1OC1CCOC1 90.5

And CC(=O)Nc1cccc(-n2c(=O)n(C3CC3)c(=O)c3c(Nc4ccc(I)cc4F)n(C)c(=O)c(C)c32)c1 + CNCc1ccccc1-c1csc(C(C)Nc2nc(C)nc3cc(OC)c(OC)cc23)c1 ? 1.09

And COC(=O)c1ccc2c(C(=Nc3ccc(N(C)C(=O)CN4CCN(C)CC4)cc3)c3ccccc3)c(O)[nH]c2c1 + COc1cc2nc(C)nc(NC(C)c3cc(N)cc(C(F)(F)F)c3)c2cc1OC1CCOC1 ? 87.2

And CC(C)NCC(C(=O)N1CCN(c2ncnc3c2C(C)CC3O)CC1)c1ccc(Cl)cc1 (stereo not given) + CC1OCC2(CCN(c3cnc(Sc4ccnc(N)c4Cl)c(N)n3)CC2)C1N ? 134

And CC(=O)OC12COC1CC(O)C1(C)C(=O)C(O)C3=C(C)C(OC(=O)C(O)C(NC(=O)OC(C)(C)C)c4ccccc4)CC(O)(C(OC(=O)c4ccccc4)C21)C3(C)C (stereo not given) + C=CC(=O)N1CCN(c2nc(=O)n(-c3c(C)ccnc3C(C)C)c3nc(-c4c(O)cccc4F)c(F)cc23)C(C)C1 ? 4

And CCNC(=O)CC1N=C(c2ccc(Cl)cc2)c2cc(OC)ccc2-n2c(C)nnc21 (stereo not given) + C=CC(=O)N1CCN(c2nc(OCC3CCCN3C)nc3c2CCN(c2cccc4cccc(C)c24)C3)CC1CC#N ? 99.9

And CCN1CCN(Cc2ccc(Nc3ncc(F)c(-c4cc(F)c5nc(C)n(C(C)C)c5c4)n3)nc2)CC1 + CNCc1ccccc1-c1csc(C(C)Nc2nc(C)nc3cc(OC)c(OC)cc23)c1 ? 106

And CN(C)C/C=C/C(=O)Nc1cc2c(Nc3ccc(F)c(Cl)c3)ncnc2cc1O[C@H]1CCOC1 + CC1OCC2(CCN(c3cnc(Sc4ccnc(N)c4Cl)c(N)n3)CC2)C1N ? 84.5

And CC(=O)Nc1cccc(-n2c(=O)n(C3CC3)c(=O)c3c(Nc4ccc(I)cc4F)n(C)c(=O)c(C)c32)c1 + C=CC(=O)N1CCN(c2nc(=O)n(-c3c(C)ccnc3C(C)C)c3nc(-c4c(O)cccc4F)c(F)cc23)C(C)C1 ? 1.46

And COc1cc(Nc2ncc3c(n2)-c2ccc(Cl)cc2C(c2c(F)cccc2OC)=NC3)ccc1C(=O)O + CC1OCC2(CCN(c3cnc(Sc4ccnc(N)c4Cl)c(N)n3)CC2)C1N ? 30.3

---

Would you kindly list IC50 for each of these molecules?
System: KRAS-mutant PDC complex spheroid viability
Experiment: Anticancer human tumor 186277-243-T-J2-PDC cell line growth inhibition [KRAS2]
Conditions: curve of first compound; second compound 0.1 µM
Number in nM, nothing else.

// fetch KRAS-mutant PDC complex spheroid viability IC50 for CC(=O)Nc1cccc(-n2c(=O)n(C3CC3)c(=O)c3c(Nc4ccc(I)cc4F)n(C)c(=O)c(C)c32)c1 + CC1OCC2(CCN(c3cnc(Sc4ccnc(N)c4Cl)c(N)n3)CC2)C1N 0.368

And COc1cc2nccc(Oc3ccc(NC(=O)C4(C(=O)Nc5ccc(F)cc5)CC4)cc3)c2cc1OC + COc1cc2nc(C)nc(NC(C)c3cc(N)cc(C(F)(F)F)c3)c2cc1OC1CCOC1 ? 882
